# Tested on: 138582-337-R-J1-PDC complex spheroid viability;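 also: spheroids exposed to agents for 7 days; 100% = DMSO vehicle control viability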
# EXPERIMENT_DESCRIPTION: Anticancer human tumor 138582-337-R-J1-PDC patient-derived Merkel cell tumor cell line growth inhibition; active = viability on the fitted dose curve at most 10% of control; inactive = the rest
# ASSAY_CONTEXT: second compound 0.316 µM; first compound 0.3 µM
Respond with a class label; see 1 (yes) for active, 0 (no) for inactive

Some entries whose results are on file:
>  <COMPOUND>
COc1cc(C2c3cc4c(cc3C(OC3OC5COC(C)OC5C(O)C3O)C3COC(=O)C23)OCO4)cc(OC)c1O (configuration not stated) + NC1CC1c1ccc(-c2cccc(O)c2)cc1

>  <CLASSIFICATION>
0 (no)

$$$$
>  <COMPOUND>
Nc1ncn(C2CC(O)C(CO)S2)c(=O)n1 (configuration not stated) + NC1CCC(NC2CC2c2ccccc2)CC1

>  <CLASSIFICATION>
0 (no)

$$$$

With those in mind, consider the next compound.
# fetch the recorded call for COc1cc(C2c3cc4c(cc3C(OC3OC5COC(C)OC5C(O)C3O)C3COC(=O)C23)OCO4)cc(OC)c1O (configuration not stated) + NC1CCC(NC2CC2c2ccccc2)CC1 here
0 (no)

Recorded values, source PubChem BioAssay AID1918931.
